assay notes: Blood-brain-barrier permeability in mice after IV administration
cond: male, CD1 (ICR), mouse, brain, intravenous, 3 mg/kg
reported endpoint: concentration at 0.5 h
Please make sure the unit comes right after the number.

get_value(item= "CC(C)(C)CC[C@H](NCc1ccc2c(c1)COCC2)C(=O)O" , readout=concentration at 0.5 h) returns 61.2 ng/g

* * *

assay notes: Kpuu determination in the dog (plasma and CSF time course after oral capsule)
Assay type: in vivo, male beagle dog
cond: male, beagle, CSF, 20 mg/kg oral capsule
reported endpoint: AUC(0-inf)
In your response, put the unit directly after the numeric value.

// AUC(0-inf) value for "CC(C)(C)CC[C@H](NCc1ccc2c(c1)COCC2)C(=O)O" : 6410 ng·h/mL
